Value source: paper PMC11808136

- System: U937 cells
- MEASUREMENT_PARAMETERS: secondary screen, Supplemental Table 1
MEASUREMENT_NAME: CC50

O=C(Nc1cccc(Nc2ncc(Br)c(NCCc3cnc[nH]3)n2)c1)N1CCCC1 ... > 100 µM
Cc1cc(Nc2ncc3c(n2)N(C)C(=O)N(c2cc(NC(=O)c4cccc(C(F)(F)F)c4)ccc2C)C3)n(C)n1 ... > 100 µM
NC(=O)Nc1sc(-c2ccc(F)cc2)cc1C(N)=O ... 11 µM

Now, please, on to the next compound.
For the compound NC(=O)c1cnc2[nH]ccc2c1N[C@@H]1[C@@H]2CC3C[C@H]1C[C@@](O)(C3)C2 [Peficitinb (ASP015K, JNJ-54781532), Peficitinb] , the measured CC50 on U937 cells was 34.7 µM

---

- Tested on: IL-8 production in influenza virus-infected U937 cells (H1N1)
- EXPERIMENT_NOTES: cells
- Type: cell-based, Human
- MEASUREMENT_PARAMETERS: Homo sapiens, U-937, secondary screen, Supplemental Table 1; read-out: EC50 IL-8
pEC50: −log10 of the molar value.
Short version: pEC50 at least 7 is rule met, less is rule not met.

CCS(=O)(=O)N1CCN(c2ccc(Nc3ncc(C(N)=O)c(NC4CC4)n3)cc2)CC1 [Cerdulatinib (PRT062070, PRT2070), Cerdulatinib] ... rule met
CNS(=O)(=O)C[C@H]1CC[C@H](N(C)c2ncnc3[nH]ccc23)CC1 [Oclacitinib] ... rule met
O=C(NOC[C@H](O)CO)c1ccc(F)c(F)c1Nc1ccc(I)cc1F [PD0325901] ... rule met
Cc1ccc(NC(=O)c2ccc(CN3CC[C@H](N(C)C)C3)c(C(F)(F)F)c2)cc1Nc1nccc(-c2cncnc2)n1 [Bafetinib (INNO-406), Bafetinib] ... rule not met
CCN(CC)CCNC(=O)c1c(C)[nH]c(/C=C2\C(=O)Nc3ccc(F)cc32)c1C [Sunitinib Malate] ... rule met

Item Cc1ccc(-n2nc(C(C)(C)C)cc2NC(=O)Nc2ccc(OCCN3CCOCC3)c3ccccc23)cc1 [BIRB 796, Doramapimod] with pEC50 of 7 or above? rule not met

Item N#CCNC(=O)c1ccc(-c2ccnc(Nc3ccc(N4CCOCC4)cc3)n2)cc1 [CYT387] with pEC50 of 7 or above? rule not met

---

- Tested on: IL-8 production in influenza virus-infected U937 cells (H1N1)
- EXPERIMENT_NOTES: cells
- Format: cell-based, Human
pIC50: −log10 of the molar value.
MEASUREMENT_NAME: pIC50

Entry Cc1ccc(Nc2ncc3c(n2)N(C)C(=O)N(c2cc(NC(=O)c4cccc(C(F)(F)F)c4)ccc2C)C3)cn1 [GNF-7] ; pIC50 = > 7.70

---

- System: U937 cells
MEASUREMENT_NAME: CC50 (µM)
# value in µM; strip the unit string

Cc1ccc(Nc2ncc3c(n2)N(C)C(=O)N(c2cc(NC(=O)c4cccc(C(F)(F)F)c4)ccc2C)C3)cn1 ... 13.6

For the compound `C=CC(=O)Nc1cccc(Oc2nc(Nc3ccc(N4CCN(C)CC4)cc3)ncc2Cl)c1` , the measured CC50 on U937 cells was 14

---

- Test system: IL-8 production in influenza virus-infected U937 cells (H1N1)
- EXPERIMENT_NOTES: cells
- Format: cell-based, Human
- MEASUREMENT_PARAMETERS: Homo sapiens, U-937; read-out: EC50 IL-8
Documented EC50 across a set of compounds
# value in nM; strip the unit string

Field: example entries. Status: answers known.
Cc1cc(Nc2nc(N[C@@H](C)c3ncc(F)cn3)ncc2Cl)n[nH]1 ... 7690
Cc1nc(Nc2ncc(C(=O)Nc3c(C)cccc3Cl)s2)cc(N2CCN(CCO)CC2)n1 ... 1890

Now, please, on to the next compound.
Entry `Cc1ccc(C(=O)Nc2ccc(CN3CCN(C)CC3)c(C(F)(F)F)c2)cc1C#Cc1cnc2cccnn12` ; EC50 = 294

---

- Tested on: IP-10 production in influenza virus-infected U937 cells (H1N1)
- EXPERIMENT_NOTES: cells
- Format: cell-based
- MEASUREMENT_PARAMETERS: Homo sapiens, U-937; read-out: EC50 IP-10
MEASUREMENT_NAME: EC50 (µM)
# value in µM; strip the unit string

Cc1cc(Nc2nc(N[C@@H](C)c3ncc(F)cn3)ncc2Cl)n[nH]1 ... 7.69

Now, please, on to the next molecule.
Entry `Cc1ccc(C(=O)Nc2ccc(CN3CCN(C)CC3)c(C(F)(F)F)c2)cc1C#Cc1cnc2cccnn12` ; EC50 = 0.27

---

Documented CC50 across a set of compounds
- EXPERIMENT_NOTES: in vitro
- MEASUREMENT_PARAMETERS: human, CC50
# value in µM; strip the unit string

Cn1c(=O)c(F)c(Nc2ccc(I)cc2F)c2c(=O)n(C[C@@H](O)CO)cnc21 [TAK-733] ... 45

Now, please, on to the next compound.
Entry N#CC[C@H](C1CCCC1)n1cc(-c2ncnc3[nH]ccc23)cn1 [Ruxolitinib (INCB018424), Ruxolitinib] ; CC50 = 100

---

Documented pEC50 across a set of compounds
- Test system: IL-8 production in influenza virus-infected U937 cells (H1N1)
- EXPERIMENT_NOTES: cells
- Assay type: cell-based, Human
- MEASUREMENT_PARAMETERS: Homo sapiens, U-937, secondary screen, Supplemental Table 1; read-out: EC50 IL-8
Quick note: pEC50 means taking -log10 of the concentration in moles per liter.

Field: example entries. Status: answers known.
Cc1nc(Nc2ncc(C(=O)Nc3c(C)cccc3Cl)s2)cc(N2CCN(CCO)CC2)n1 ... 5.69
O=C(Nc1cc(C(F)(F)F)cc(C(F)(F)F)c1)c1cc(Cl)ccc1O ... 7.70
C=CC(=O)N1CCC[C@@H](n2nc(-c3ccc(Oc4ccccc4)cc3)c3c(N)ncnc32)C1 ... 5.91

Entry `CNC(=O)c1cc(Oc2ccc(NC(=O)Nc3ccc(Cl)c(C(F)(F)F)c3)c(F)c2)ccn1` ; pEC50 = 6.21

---

- Test system: IL-8 production in influenza virus-infected U937 cells (H1N1)
- EXPERIMENT_NOTES: cells
- Type: cell-based, Human
- MEASUREMENT_PARAMETERS: Homo sapiens, U-937, read-out: EC50 IL-8
Documented EC50 across a set of molecules

Cn1c(=O)c(F)c(Nc2ccc(I)cc2F)c2c(=O)n(C[C@@H](O)CO)cnc21 ... < 0.005 µM

Now, please, on to the next molecule.
Entry `N#CC[C@H](C1CCCC1)n1cc(-c2ncnc3[nH]ccc23)cn1` ; EC50 = 0.12 µM

---

- ASSAYED_TARGET: JAK2 (Homo sapiens, UniProt O60674)
- Sequence (O60674 whole entry): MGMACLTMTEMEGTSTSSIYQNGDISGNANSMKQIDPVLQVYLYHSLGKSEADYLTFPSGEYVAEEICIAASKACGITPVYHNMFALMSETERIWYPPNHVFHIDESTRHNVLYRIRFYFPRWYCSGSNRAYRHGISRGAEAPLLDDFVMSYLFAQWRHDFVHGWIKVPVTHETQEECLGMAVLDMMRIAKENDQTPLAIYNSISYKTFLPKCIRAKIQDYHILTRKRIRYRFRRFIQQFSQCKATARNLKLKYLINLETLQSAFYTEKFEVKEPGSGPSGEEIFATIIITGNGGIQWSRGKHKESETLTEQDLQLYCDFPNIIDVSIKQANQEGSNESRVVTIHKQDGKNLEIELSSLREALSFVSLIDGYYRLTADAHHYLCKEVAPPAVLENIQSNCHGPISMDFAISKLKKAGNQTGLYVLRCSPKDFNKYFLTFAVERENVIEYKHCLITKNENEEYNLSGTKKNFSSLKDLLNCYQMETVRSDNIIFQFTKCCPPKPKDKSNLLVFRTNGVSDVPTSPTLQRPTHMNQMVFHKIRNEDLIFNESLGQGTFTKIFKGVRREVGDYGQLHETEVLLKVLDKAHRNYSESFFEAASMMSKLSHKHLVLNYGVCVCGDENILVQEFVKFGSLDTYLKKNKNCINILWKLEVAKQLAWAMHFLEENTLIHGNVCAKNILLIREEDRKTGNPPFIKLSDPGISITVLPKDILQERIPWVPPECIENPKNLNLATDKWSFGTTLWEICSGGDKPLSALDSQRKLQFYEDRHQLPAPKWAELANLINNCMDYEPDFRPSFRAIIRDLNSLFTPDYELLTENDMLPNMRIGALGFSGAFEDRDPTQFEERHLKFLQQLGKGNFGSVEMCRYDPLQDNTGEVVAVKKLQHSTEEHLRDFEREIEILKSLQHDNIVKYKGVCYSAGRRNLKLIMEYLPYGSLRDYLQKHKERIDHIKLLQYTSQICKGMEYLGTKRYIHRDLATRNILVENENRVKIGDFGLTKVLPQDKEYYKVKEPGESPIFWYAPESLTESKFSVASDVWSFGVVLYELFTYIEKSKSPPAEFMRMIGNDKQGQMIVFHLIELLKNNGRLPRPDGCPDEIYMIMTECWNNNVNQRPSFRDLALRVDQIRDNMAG
MEASUREMENT_NAME: pIC50
Quick note: pIC50 means taking -log10 of the concentration in moles per liter.

Entry CC[C@@](C)(Nc1ccnc(-c2c[nH]c3ncccc23)n1)C(=O)NCC(F)(F)F [Decernotinib] ; pIC50 = 7.05

---

List of IC50 tested on JAK1 (Homo sapiens, UniProt P23458).
Sequence (P23458 whole entry): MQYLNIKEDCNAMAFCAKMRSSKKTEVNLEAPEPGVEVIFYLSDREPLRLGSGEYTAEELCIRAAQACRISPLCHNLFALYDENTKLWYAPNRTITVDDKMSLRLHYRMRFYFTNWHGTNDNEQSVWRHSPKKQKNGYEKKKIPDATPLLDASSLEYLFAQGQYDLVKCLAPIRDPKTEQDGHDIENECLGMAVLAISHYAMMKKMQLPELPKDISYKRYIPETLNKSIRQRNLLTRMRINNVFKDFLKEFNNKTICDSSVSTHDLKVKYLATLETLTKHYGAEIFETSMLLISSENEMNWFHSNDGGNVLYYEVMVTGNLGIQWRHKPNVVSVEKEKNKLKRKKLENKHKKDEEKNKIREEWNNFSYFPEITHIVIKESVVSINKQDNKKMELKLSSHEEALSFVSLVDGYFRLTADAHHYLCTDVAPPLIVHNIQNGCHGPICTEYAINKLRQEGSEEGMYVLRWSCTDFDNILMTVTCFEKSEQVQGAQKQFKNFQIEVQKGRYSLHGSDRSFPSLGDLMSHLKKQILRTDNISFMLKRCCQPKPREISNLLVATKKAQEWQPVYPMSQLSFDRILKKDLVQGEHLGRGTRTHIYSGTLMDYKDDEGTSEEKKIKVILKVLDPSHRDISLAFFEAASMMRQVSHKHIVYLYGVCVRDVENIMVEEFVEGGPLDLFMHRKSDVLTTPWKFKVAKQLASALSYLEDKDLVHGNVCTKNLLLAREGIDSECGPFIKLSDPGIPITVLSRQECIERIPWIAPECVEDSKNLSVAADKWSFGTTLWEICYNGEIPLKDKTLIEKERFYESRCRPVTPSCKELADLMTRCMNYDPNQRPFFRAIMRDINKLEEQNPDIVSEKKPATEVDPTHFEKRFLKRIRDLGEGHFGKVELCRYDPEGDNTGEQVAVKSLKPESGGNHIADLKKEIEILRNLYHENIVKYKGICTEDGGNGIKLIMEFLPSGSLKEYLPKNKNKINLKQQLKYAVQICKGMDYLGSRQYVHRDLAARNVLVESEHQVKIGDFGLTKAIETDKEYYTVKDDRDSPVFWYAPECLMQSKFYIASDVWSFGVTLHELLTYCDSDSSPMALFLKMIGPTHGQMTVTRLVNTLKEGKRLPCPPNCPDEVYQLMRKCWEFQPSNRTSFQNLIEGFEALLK
# value in nM; strip the unit string

Cc1cc(Nc2nc(N[C@@H](C)c3ncc(F)cn3)ncc2Cl)n[nH]1 ... 430

Now, please, on to the next compound.
Entry `CC[C@@](C)(Nc1ccnc(-c2c[nH]c3ncccc23)n1)C(=O)NCC(F)(F)F` ; IC50 = 13

---

- System: U937 cells
- MEASUREMENT_PARAMETERS: secondary screen, Supplemental Table 1
// returns no unless CC50 is strictly below 7 µM, in which case yes

Some solved entries appear below for comparison.
C=CC(=O)Nc1ccc(CN2C(=O)N(c3cc(OC)cc(OC)c3)Cc3cnc(Nc4ccc(N5CCN(C)CC5)cc4)nc32)cc1 [FIIN-2] ... no
O=C(c1ccc(Nc2nccc(-c3cc4ccccc4s3)n2)cc1)N1CCC(N2CCCC2)CC1 [IKK-16 (IKK Inhibitor VII)] ... no
CN1CCN(c2cccc(Nc3nc4c(-c5ccc(S(C)(=O)=O)cc5)cccn4n3)c2)CC1 [CEP-33779] ... no
Cc1c[nH]c2nc(Nc3ccc(N4CCN(C)CC4)c(F)c3)nc(-c3cccc(CC#N)c3)c12 [SGI-7079] ... yes

Record COc1cc(Nc2ncc(F)c(Nc3ccc4c(n3)NC(=O)C(C)(C)O4)n2)cc(OC)c1OC [R406 (free base)] : is its CC50 strictly below 7 µM? no

---

Documented pEC50 across a set of compounds
- Tested on: IL-8 production in influenza virus-infected U937 cells (H1N1)
- EXPERIMENT_NOTES: cells
- Format: cell-based, Human
- MEASUREMENT_PARAMETERS: Homo sapiens, U-937, secondary screen, Supplemental Table 1; read-out: EC50 IL-8
pEC50: −log10 of the molar value.

Field: example entries. Status: answers known.
Cc1cc(Nc2cc(CN3CCOCC3)c3nc(C)c(Cc4ccc(Cl)cc4F)n3n2)n[nH]1 ... > 8.30
CC(C)(C)Cn1c(N)nc2ccc(-c3[nH]c(C(C)(C)C)nc3-c3ccc(F)cc3)nc21 ... > 8.30

Now, please, on to the next compound.
For the compound `Cc1ccc(C(=O)Nc2ccc(CN3CCN(C)CC3)c(C(F)(F)F)c2)cc1C#Cc1cnc2[nH]ncc2c1` , the measured pEC50 on IL-8 production in influenza virus-infected U937 cells (H1N1) was > 8.30
